Hey, just so you know, these numbers are from the RNAGym collection of RNA variant scans (doi:10.7554/elife.90254).

B1: OR4K15 (parent)
chain: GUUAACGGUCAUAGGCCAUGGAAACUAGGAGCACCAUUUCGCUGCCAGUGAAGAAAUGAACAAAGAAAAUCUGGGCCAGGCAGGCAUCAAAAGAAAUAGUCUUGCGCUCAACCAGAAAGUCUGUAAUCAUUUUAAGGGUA

Variants of: B1
Assay: self-cleavage, relative activity (ratio to wild type); higher = more cleavage; in vitro, sequencing; the parent is a self-cleaving ribozyme
self-cleavage values by entry
Give the figure by itself; no unit, no explanation.

Example results:
# mutation-annotation, self-cleavage
records = [
    ("A36G A54G", 0.96),
    ("A64G A90U", 1.58),
    ("A27G A60G", 1.09),
    ("A22G A96G", 1.28),
    ("A56G U133C", 1.43),
]

Could you now consider this next variant?
# get_value(readout='self-cleavage', item= U57C U103C ) 0.86
